- Type: cell-based, human
- REPORTED CONDITIONS: human, Cell viability (%)
Bridge positions count the residues as written; N and C are the ends. Square brackets hold non-standard residues; d marks the D form. Peptide text beside a SMILES is read from it. * marks the point of attachment. Phe(4-guanidino) = N=C(N)Nc1ccc(C[C@H](N)C(=O)O)cc1; X1 = N=C(N)N[C@@H](Cc1ccccc1)C(=O)*
PROPERTY: viability at 2 h, 100 µM (%)
Numbers only, in %.

compound="CC[C@H](C)[C@H](NC(=O)[C@H](CCCNC(=N)N)NC(=O)[C@H]1CCC(=O)NCCCC[C@H](NC(=O)[C@H](Cc2ccccc2)NC(=O)[C@H](Cc2c[nH]c3ccccc23)NC(=O)[C@@H]2CCCN2C(=O)[C@@H](NC(=O)[C@H](Cc2ccccc2)NC(=N)N)C(C)C)C(=O)N[C@@H](CCCCN)C(=O)N[C@@H](Cc2ccccc2)C(=O)N[C@H](CC(C)C)C(=O)N1)C(=O)N[C@@H](CC(C)C)C(N)=O [Peptide 3, guanidino-FVPWF[KKFle]RIL] (X1-VPWFKKF[dL][dE]RIL-NH2; lactam 5-9)" reported_measurement=5

Value sought for every listed compound: viability at 2 h, 100 µM.
1. CC[C@H](C)[C@H](NC(=O)[C@H](CCCNC(=N)N)NC(=O)[C@H]1CCC(=O)NCCCC[C@H](NC(=O)[C@H](Cc2ccccc2)NC(=O)[C@H](Cc2c[nH]c3ccccc23)NC(=O)[C@@H]2CCCN2C(=O)[C@@H](NC(=O)[C@@H](N)Cc2ccccc2)C(C)C)C(=O)N[C@@H](CCCCN)C(=O)N[C@@H](Cc2ccc(NC(=N)N)cc2)C(=O)N[C@H](CC(C)C)C(=O)N1)C(=O)N[C@@H](CC(C)C)C(N)=O [Peptide 10, FVPWF[KK(p-guanidino)Fle]RIL] (H-FVPWFKK[Phe(4-guanidino)][dL][dE]RIL-NH2; lactam 6-10)
2. CC[C@H](C)[C@H](NC(=O)[C@H](CCCNC(=N)N)NC(=O)[C@H]1CCC(=O)NCCCC[C@H](NC(=O)[C@H](Cc2ccccc2)NC(=O)[C@H](Cc2c[nH]c3ccccc23)NC(=O)[C@@H]2CCCN2C(=O)[C@@H](NC(=O)[C@@H](N)Cc2ccc(NC(=N)N)cc2)C(C)C)C(=O)N[C@@H](CCCCN)C(=O)N[C@@H](Cc2ccccc2)C(=O)N[C@H](CC(C)C)C(=O)N1)C(=O)N[C@@H](CC(C)C)C(N)=O [Peptide 6, (p-guanidino)FVPWF[KKFle]RIL] (H-[Phe(4-guanidino)]VPWFKKF[dL][dE]RIL-NH2; lactam 6-10)

82
13

viability at 2 h, 100 µM recorded for this compound, CC[C@H](C)[C@H](NC(=O)[C@H](CCCNC(=N)N)NC(=O)[C@H]1CCC(=O)NCCCC[C@H](NC(=O)[C@H](Cc2ccccc2)NC(=O)[C@H](Cc2c[nH]c3ccccc23)NC(=O)[C@@H]2CCCN2C(=O)[C@@H](NC(=O)[C@@H](N)Cc2ccccc2)C(C)C)C(=O)N[C@@H](CCCNC(=N)N)C(=O)N[C@@H](Cc2ccccc2)C(=O)N[C@H](CC(C)C)C(=O)N1)C(=O)N[C@@H](CC(C)C)C(N)=O [Peptide 9, FVPWF[KRFle]RIL] (H-FVPWFKRF[dL][dE]RIL-NH2; lactam 6-10) , is 22
